- tested_target: IKZF2 (Homo sapiens (Human), UniProt Q96SW2+Q9UKS7)
- Sequence (Q9UKS7 whole entry): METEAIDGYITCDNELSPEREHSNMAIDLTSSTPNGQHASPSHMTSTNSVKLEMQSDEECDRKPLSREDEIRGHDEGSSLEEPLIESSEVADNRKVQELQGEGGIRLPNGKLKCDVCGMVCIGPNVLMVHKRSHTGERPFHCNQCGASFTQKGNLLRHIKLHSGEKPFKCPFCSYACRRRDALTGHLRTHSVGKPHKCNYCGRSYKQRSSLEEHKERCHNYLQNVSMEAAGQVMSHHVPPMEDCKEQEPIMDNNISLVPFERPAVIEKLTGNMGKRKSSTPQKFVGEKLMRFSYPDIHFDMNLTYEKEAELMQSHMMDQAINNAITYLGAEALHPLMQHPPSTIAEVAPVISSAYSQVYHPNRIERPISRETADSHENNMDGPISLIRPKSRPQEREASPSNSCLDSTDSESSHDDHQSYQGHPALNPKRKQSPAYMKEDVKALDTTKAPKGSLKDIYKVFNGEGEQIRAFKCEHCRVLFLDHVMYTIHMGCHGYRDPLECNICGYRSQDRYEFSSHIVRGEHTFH
- Sequence (Q96SW2 whole entry): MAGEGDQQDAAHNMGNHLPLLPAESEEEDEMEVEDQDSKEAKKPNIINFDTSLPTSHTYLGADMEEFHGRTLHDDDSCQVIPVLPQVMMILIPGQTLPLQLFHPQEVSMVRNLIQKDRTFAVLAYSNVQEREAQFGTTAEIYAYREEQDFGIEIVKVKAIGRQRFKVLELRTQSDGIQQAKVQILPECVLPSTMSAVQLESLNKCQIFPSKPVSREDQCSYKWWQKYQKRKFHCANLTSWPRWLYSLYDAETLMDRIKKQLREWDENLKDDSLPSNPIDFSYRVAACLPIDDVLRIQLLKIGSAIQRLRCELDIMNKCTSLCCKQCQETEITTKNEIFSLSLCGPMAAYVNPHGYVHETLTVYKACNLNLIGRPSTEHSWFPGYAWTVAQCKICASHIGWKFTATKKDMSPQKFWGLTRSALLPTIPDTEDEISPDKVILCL
- Sequence (Q16531 2-1140 partner): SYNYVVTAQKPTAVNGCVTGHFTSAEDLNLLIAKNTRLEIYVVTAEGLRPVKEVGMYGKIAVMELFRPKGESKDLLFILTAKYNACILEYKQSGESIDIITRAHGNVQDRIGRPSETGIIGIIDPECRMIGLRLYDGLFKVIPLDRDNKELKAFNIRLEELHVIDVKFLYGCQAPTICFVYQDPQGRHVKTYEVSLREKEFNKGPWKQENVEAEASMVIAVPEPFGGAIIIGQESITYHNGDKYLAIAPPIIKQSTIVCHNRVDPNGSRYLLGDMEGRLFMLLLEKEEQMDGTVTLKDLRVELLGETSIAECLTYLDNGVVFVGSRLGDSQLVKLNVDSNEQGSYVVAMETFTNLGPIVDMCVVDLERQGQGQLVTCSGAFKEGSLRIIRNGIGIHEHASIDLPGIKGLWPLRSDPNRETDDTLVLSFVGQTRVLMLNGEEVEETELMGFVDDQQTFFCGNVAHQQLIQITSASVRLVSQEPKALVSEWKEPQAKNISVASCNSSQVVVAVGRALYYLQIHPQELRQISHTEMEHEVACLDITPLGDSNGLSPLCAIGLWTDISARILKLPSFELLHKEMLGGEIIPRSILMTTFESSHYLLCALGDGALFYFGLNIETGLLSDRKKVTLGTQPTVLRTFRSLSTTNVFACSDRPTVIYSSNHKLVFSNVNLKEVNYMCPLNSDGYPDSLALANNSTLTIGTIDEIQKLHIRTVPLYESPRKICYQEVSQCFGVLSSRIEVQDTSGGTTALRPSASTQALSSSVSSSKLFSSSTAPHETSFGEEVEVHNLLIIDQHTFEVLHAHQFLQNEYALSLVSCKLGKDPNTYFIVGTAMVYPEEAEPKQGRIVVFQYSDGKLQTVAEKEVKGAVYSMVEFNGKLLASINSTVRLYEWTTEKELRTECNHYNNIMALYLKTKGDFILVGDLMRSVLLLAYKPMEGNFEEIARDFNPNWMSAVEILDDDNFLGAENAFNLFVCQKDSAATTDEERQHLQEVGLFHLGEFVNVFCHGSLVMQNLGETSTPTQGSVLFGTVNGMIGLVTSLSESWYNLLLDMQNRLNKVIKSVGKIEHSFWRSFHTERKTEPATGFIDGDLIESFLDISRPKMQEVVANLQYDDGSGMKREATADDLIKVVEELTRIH
- procedure_text: In vitro IKZF2 FACS Assay in Jurkat cells
- Assay type: cell-based
- condition_description: 24 hrs, half maximal degradation concentration
Catalogue of DC50 values

Solved cases (3 shown):
O=C1CCC(N2Cc3cc(-c4cc(CN5CCCC5)c5nccc(OC6CC6)c5n4)ccc3C2=O)C(=O)N1 (stereo not shown): 1 to 10 nM
O=C1CCC(N2Cc3cc(-c4ccc(CN5CCCC5)c5cncn45)ccc3C2=O)C(=O)N1 (stereo not shown): < 1 nM
CC(C)Nc1n[nH]c2c(CN3CCCC3)cc(-c3ccc4c(c3)CN(C3CCC(=O)NC3=O)C4=O)nc12 (stereo not shown): 1 to 10 nM

Consider the additional compound presented here.
DC50 of CCNc1n[nH]c2c(CN3CCCC3)cc(-c3ccc4c(c3)CN(C3CCC(=O)NC3=O)C4=O)nc12 (stereo not shown) , assay on IKZF2 (Homo sapiens (Human), UniProt Q96SW2+Q9UKS7), is 10 to 100 nM

---

- tested_target: IKZF2 (Homo sapiens (Human), UniProt Q96SW2+Q9UKS7)
- procedure_text: In vitro IKZF2 FACS Assay in Jurkat cells
- Format: cell-based
- condition_description: 24 hrs, maximal degradation percentage
- Description: In vitro IKZF2 FACS Assay DC50, A: <1 nM; B: 1-10 nM; C: 10-100 nM; D: 100-1000 nM; E: >1000 nM. Dmax, A: >80%; B: 60-80%; C: 40-60%; D: 20-40%; E: <20%.
measure_name: Dmax

Solved entries:
Nc1n[nH]c2c(CN3CCC4(CC3)COC4)cc(-c3ccc4c(c3)CN(C3CCC(=O)NC3=O)C4=O)nc12 (stereo not shown) [Example 216]: 60 to 80%
O=C1CCC(N2Cc3cc(-c4cc(CN5CCC(O)C5)c5ccn(C6COC6)c5n4)ccc3C2=O)C(=O)N1 (stereo not shown) [Example 158]: > 80%
O=C1CCC(N2Cc3cc(-c4cc(CN5CCC(F)CC5)c5ccn(C6COC6)c5n4)ccc3C2=O)C(=O)N1 (stereo not shown) [Example 187]: > 80%
COC1CC(n2ccc3c(CN4CCCC4)cc(-c4ccc5c(c4)CN(C4CCC(=O)NC4=O)C5=O)nc32)C1 (stereo not shown) [Example 255]: > 80%

Measured Dmax of COC1CCN(Cc2cc(-c3ccc4c(c3)CN(C3CCC(=O)NC3=O)C4=O)nc3c2ccn3C2COC2)CC1 (stereo not shown) [Example 189] : > 80%

Lookup result for O=C1CCC(N2Cc3cc(-c4cc(CN5CCC(CO)CC5)c5ccn(C6COC6)c5n4)ccc3C2=O)C(=O)N1 (stereo not shown) [Example 163] ; measured Dmax: > 80%

get_value(item= Cn1cc2nc(-c3ccc4c(c3)CN(C3CCC(=O)NC3=O)C4=O)cc(CN3CCCC3)c2n1 (stereo not shown) [Example 314] , readout=Dmax) returns > 80%

---

As shown below, each of these compounds has a reported IC50 value.
- tested_target: CRBN/DDB1 (Homo sapiens (Human), UniProt Q96SW2)
- Sequence (Q16531 whole entry partner, species assumed, one chain of several): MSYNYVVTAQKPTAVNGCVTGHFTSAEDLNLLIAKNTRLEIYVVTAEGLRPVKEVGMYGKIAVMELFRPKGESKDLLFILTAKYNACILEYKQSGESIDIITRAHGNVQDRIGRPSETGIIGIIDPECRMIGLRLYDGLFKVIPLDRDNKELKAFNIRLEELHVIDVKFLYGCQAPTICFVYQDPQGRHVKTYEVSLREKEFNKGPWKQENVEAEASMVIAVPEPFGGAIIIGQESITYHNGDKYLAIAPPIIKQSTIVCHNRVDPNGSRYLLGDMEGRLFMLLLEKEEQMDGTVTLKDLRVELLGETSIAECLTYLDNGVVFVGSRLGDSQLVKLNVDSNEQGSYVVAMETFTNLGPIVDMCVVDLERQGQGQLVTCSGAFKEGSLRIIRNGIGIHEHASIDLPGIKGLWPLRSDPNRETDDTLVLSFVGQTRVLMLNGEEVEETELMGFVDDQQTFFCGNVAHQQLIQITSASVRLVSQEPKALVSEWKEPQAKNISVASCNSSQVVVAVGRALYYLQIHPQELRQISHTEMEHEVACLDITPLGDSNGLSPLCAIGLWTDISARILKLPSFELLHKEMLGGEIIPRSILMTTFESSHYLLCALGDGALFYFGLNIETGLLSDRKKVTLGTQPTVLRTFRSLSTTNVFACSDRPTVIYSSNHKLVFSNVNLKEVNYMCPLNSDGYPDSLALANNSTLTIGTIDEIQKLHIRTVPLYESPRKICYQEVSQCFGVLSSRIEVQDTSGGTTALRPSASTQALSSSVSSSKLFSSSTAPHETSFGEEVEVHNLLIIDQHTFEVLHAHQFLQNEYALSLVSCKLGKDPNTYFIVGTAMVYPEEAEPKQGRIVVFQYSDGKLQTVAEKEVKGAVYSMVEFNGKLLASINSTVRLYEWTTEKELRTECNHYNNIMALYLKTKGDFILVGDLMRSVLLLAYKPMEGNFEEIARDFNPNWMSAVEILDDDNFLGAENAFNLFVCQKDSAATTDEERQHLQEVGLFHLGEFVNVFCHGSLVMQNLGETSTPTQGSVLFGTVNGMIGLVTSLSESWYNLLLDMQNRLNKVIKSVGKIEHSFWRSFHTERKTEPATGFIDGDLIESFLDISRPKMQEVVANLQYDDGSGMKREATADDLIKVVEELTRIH
- procedure_text: IC50 measurements for binding to CRBN/DDB1 (HTRF)
- condition_description: His tagged CRBN+DDB, Cy5-labeled Thalidomide probe, one hour

Example entries and their recorded answers appear below.
O=C1CCC(N2Cc3cc(-c4cc(CN5CC(F)C5)c5ccn(C6COC6)c5n4)ccc3C2=O)C(=O)N1 (stereo not shown) [Example 161]: 0.1 to 0.5 µM
O=C1CCC(N2Cc3cc(-c4cc(CN5CCC(O)C5)c5ccn(C6COC6)c5n4)ccc3C2=O)C(=O)N1 (stereo not shown) [Example 158]: 0.1 to 0.5 µM
CCN(CC)Cc1cc(-c2ccc3c(c2)CN(C2CCC(=O)NC2=O)C3=O)n2cncc2c1 (stereo not shown) [Example 12]: 0.1 to 0.5 µM
C[C@H](NCc1cc(-c2ccc3c(c2)CN(C2CCC(=O)NC2=O)C3=O)n2cncc2c1)c1ccccc1 (single isomer, unassigned) [Example 14]: 0.1 to 0.5 µM
O=C1CCC(N2Cc3cc(-c4ncc5cc(CN6CCCC6)ccn45)ccc3C2=O)C(=O)N1 (stereo not shown) [Example 52]: 0.5 to 1 µM

Recorded result, O=C1CCC(N2Cc3cc(-c4cc(CN5CCCC5c5ccccc5)cc5cncn45)ccc3C2=O)C(=O)N1 (stereo not shown) [Example 26] , IC50: 0.1 to 0.5 µM

The value of IC50 measured for the compound C[C@@H](c1ccccc1)N(C)Cc1cc(-c2ccc3c(c2)CN(C2CCC(=O)NC2=O)C3=O)n2cncc2c1 (single isomer, unassigned) [Example 15] turned out to be 1 to 5 µM

---

Dmax by entry:
- tested_target: IKZF2 (Homo sapiens (Human), UniProt Q96SW2+Q9UKS7)
- procedure_text: In vitro IKZF2 HiBit Assay (HEK293T Flp-in-HiBiT cells)
- Type: cell-based
- condition_description: HEK-293T; HEK293T Flp-in-HiBiT cells, 6 hrs incubation; read-out: IKZF2 HiBit Dmax (%)

Some compounds with known Dmax results, for comparison:
Cn1ccc2c(CN3CCCC3)c(Cl)c(-c3ccc4c(c3)CN(C3CCC(=O)NC3=O)C4=O)nc21 (stereo not shown): 60 to 80%
Cn1ccc2c(CN3CC4COCC(C4)C3)cc(-c3ccc4c(c3)CN(C3CCC(=O)NC3=O)C4=O)nc21 (stereo not shown): > 80%

Lab note: measured Dmax of Cn1ccc2c(CN3CCn4nccc4C3)cc(-c3ccc4c(c3)CN(C3CCC(=O)NC3=O)C4=O)nc21 (stereo not shown) was 40 to 60%

Briefly, Dmax measured for Cn1ccc2c(CN3CC4CCC(C4)C3)cc(-c3ccc4c(c3)CN(C3CCC(=O)NC3=O)C4=O)nc21 (stereo not shown) : > 80%

Please fill in: Dmax reported for O=C1CCC(N2Cc3cc(-c4cc(CN5CCCC5)c5nccc(OC6COC6)c5n4)ccc3C2=O)C(=O)N1 (stereo not shown) = 60 to 80%

response.value for O=C1CCC(N2Cc3cc(-c4cc(CN5CC6COCC(C6)C5)c5cc[nH]c5n4)ccc3C2=O)C(=O)N1 (stereo not shown) (field: Dmax) = > 80%

get_value(item= O=C1CCC(N2Cc3cc(-c4cc(CN5CCC6(CC5)CC6)cc5cncn45)ccc3C2=O)C(=O)N1 (stereo not shown) , readout=Dmax) returns 40 to 60%

---

- tested_target: IKZF1 (Homo sapiens (Human), UniProt Q13422+Q96SW2)
- Sequence (Q13422 whole entry): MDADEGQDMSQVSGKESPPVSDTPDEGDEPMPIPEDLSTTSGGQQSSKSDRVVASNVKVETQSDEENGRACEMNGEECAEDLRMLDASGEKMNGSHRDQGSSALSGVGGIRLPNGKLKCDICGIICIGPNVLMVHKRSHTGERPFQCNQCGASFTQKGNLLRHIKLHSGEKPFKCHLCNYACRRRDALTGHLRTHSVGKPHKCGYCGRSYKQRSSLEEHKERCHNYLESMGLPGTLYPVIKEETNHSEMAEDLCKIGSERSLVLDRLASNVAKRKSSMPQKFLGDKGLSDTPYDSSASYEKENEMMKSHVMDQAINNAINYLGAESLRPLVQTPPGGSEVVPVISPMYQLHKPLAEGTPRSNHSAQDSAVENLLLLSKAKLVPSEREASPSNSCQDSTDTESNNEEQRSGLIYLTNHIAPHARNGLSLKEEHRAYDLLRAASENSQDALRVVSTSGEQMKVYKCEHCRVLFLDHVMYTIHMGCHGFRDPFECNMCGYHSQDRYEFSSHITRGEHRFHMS
- Sequence (Q96SW2 whole entry): as the sequence (Q96SW2 whole entry) above
- Sequence (Q16531 2-1140 partner): as the sequence (Q16531 2-1140 partner) above
- procedure_text: In vitro IKZF1 HiBit Assay (HEK293T Flp-in-HiBiT-IKZF1 stable cell line)
- Format: cell-based
- condition_description: HEK293T Flp-in-HiBiT-IKZF1 stable cell line, 6 hrs incubation; read-out: IKZF1 HiBit DC50
- Procedure: In Vitro IKZF1 HiBit Assay […] 25 nL of diluted compound is transferred to assay plates (Corning3571) using ECHO550, the final DMSO concentration @ 0.1%. […] The amount of Nano-Glo® HiBiT lytic reagent needed to perform the desired experiments is calculated. […] After briefly centrifuge, the plateis read on Envision. […] The extent of degradation (range of luminescence) from the highest to lowest concentration points was calculated to determine the Dmax. […]
Structures can show the parent of a compound that is named as a salt.
List of DC50 values.

In the examples that follow, each entry is paired with its recorded DC50.
O=C1CCC(N2Cc3cc(-c4cc(CN5CCCC5)c5c(ccn5CCCO)n4)ccc3C2=O)C(=O)N1 (centres unmarked): 100 to 1000 nM
Cn1ccc2c(CN3CCC(F)(F)CC3)cc(-c3ccc4c(c3)CN(C3CCC(=O)NC3=O)C4=O)nc21 (centres unmarked): > 10000 nM
Cn1ccc2c(CN3CCCC3)cc(-c3cc4c(cc3F)C(=O)N(C3CCC(=O)NC3=O)C4)nc21 (centres unmarked): > 10000 nM
O=C1CCC(N2Cc3cc(-c4cc(CN5CCCC5C(F)F)c5ccn(C6COC6)c5n4)ccc3C2=O)C(=O)N1 (centres unmarked): > 10000 nM
O=C1CCC(N2Cc3cc(-c4cc(CN5CCCC5)c5cc[nH]c5n4)ccc3C2=O)C(=O)N1 (centres unmarked): > 10000 nM
CC(C)C1CCN(Cc2cc(-c3ccc4c(c3)CN(C3CCC(=O)NC3=O)C4=O)nc3[nH]ccc23)C1 (centres unmarked): 1 to 10 nM

// DC50 value for COCC1CCN(Cc2cc(-c3ccc4c(c3)CN(C3CCC(=O)NC3=O)C4=O)nc3c2ccn3C)C1 (centres unmarked) : 1 to 10 nM

DC50 reading for COC1CCN(Cc2cc(-c3ccc4c(c3F)CN(C3CCC(=O)NC3=O)C4=O)nc3c2ccn3C2CS(=O)(=O)C2)CC1 (centres unmarked) [Example 266, formate] : 10 to 100 nM

Entry O=C1CCC(N2Cc3cc(-c4cc(CN5CCC(O)C5)c5ccn(C6COC6)c5n4)ccc3C2=O)C(=O)N1 (centres unmarked) , DC50 reported as > 10000 nM

Quick note, DC50 for CCn1nc(N)c2nc(-c3ccc4c(c3)CN(C3CCC(=O)NC3=O)C4=O)cc(CN3CCCC3)c21 (centres unmarked) landed at 100 to 1000 nM

Noted for Cn1ccc2c(CN3CCc4ccccc4C3)cc(-c3ccc4c(c3)CN(C3CCC(=O)NC3=O)C4=O)nc21 (centres unmarked) : its DC50 reads > 10000 nM

The molecule O=C1CCC(N2Cc3cc(-c4cc(CN5CCCC5)c5nccc(OC6CCC6)c5n4)ccc3C2=O)C(=O)N1 (centres unmarked) showed DC50 equal to > 10000 nM

Form field DC50, entry CC(C)Nc1n[nH]c2c(CN3CCC4(CC3)COC4)cc(-c3ccc4c(c3F)CN(C3CCC(=O)NC3=O)C4=O)nc12 (centres unmarked) : 10 to 100 nM
